Assay: physchem
Details: pH 6
readout name: logD
Please reply with the number alone, leaving off any unit.

Give me measured logD, please, for this compound: C[n+]1ccccc1/C=N/O [2-PAM chloride] -3.12
